System: CEM cells HIV-1 protection, formazan growth assay
Assay: NCI AIDS Antiviral Assay;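 active = compounds giving half or more protection of infected cells from virus-caused growth loss, again on retest; inactive = the rest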
Classes used: active, inactive

1) CCOC(=O)/C(Cc1cc(=O)n(C)c2ccccc12)=N\Nc1ccccc1; inactive
2) O=C(c1ccccc1)C(Nc1nc2nc(-c3ccccc3)c(-c3ccccc3)n2[nH]1)c1ccccc1 (centres undefined); inactive
3) Nc1nc(=S)[nH]c(C(=O)Nc2nccs2)c1-c1ccccc1; inactive
4) Cn1cc(N)cc1C(=O)Nc1cc(C(=O)Nc2ccc3cc(S(=O)(=O)O)cc(S(=O)(=O)O)c3c2)n(C)n1; active
5) O=C(NCCS(=O)(=O)N1C(=O)C2CCCN2C(=O)[C@@H]1Cc1ccccc1)OCc1ccccc1 (some centres undefined); inactive
6) NNC(=S)N/N=C(\CC1OC(=O)c2ccccc21)c1ccccc1O (centres undefined); inactive
7) CC(=O)[CH-]C(C)=O.CC(=O)[CH-]C(C)=O.CCCNCCN.[Cr+5].[O-][Cl+3]([O-])([O-])[O-]; inactive
8) O=S1Nc2c(Cl)cc(Cl)c(Cl)c2S1 (centres undefined); inactive
9) CCN(CC)CCN.O=c1cccccc1[O-].O=c1cccccc1[O-].[Co+3].[O-][Cl+3]([O-])([O-])[O-]; inactive

* * *

# reported pIC50; entries follow
Test system: CEM cells HIV-1 protection, formazan growth assay
Assay: NCI AIDS Antiviral Assay
Condition Summary: measured here: growth of uninfected CEM cells
pIC50: −log10 of the molar value.
Property: pIC50

1. N#Cc1c(-c2ccco2)cc(-c2ccc(NCc3nc4ccccc4[nH]3)cc2)nc1N; < 4.89
2. CC(C)CC(NC(=O)C(CCI)Cc1ccccc1)C(=O)Nc1ccccc1 (stereo unspecified); 4.49
3. C(=C\c1cnc2ccccc2n1)/c1ccc2c(c1)OCO2; < 3.70
4. C(/C=C\c1ccccc1)=Nc1ccccc1; < 4.46
5. C=CCC[P+](c1ccccc1)(c1ccccc1)c1ccccc1; 5.65
6. Nc1ncnc2c1ncn2[C@H]1CC[C@]2(CO)C[C@H]12; < 4.60

* * *

Test system: CEM cells HIV-1 protection, formazan growth assay
Assay: NCI AIDS Antiviral Assay;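 active = compounds giving half or more protection of infected cells from virus-caused growth loss, again on retest; inactive = the rest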
Classes used: active, inactive

1. CC(/C=N/NC1=NCCCCN1)=N\NC1=NCCCCN1; inactive
2. O=c1ccc2c(O)c3ccoc3cc2o1; inactive
3. CCc1cccc(C)c1NC(=O)CCc1nnc2s/c(=C\c3cccc4ccccc34)c(=O)n12; inactive
4. CC1(O)c2ccccc2CCc2ccccc21; inactive
5. Cn1c(=O)c2[nH]c(=O)c(C(CO)C(=O)c3ccccc3)nc2n(C)c1=O (configuration not stated); inactive
6. C=C1CN=C(Nc2ccc(Cl)cc2)S1; inactive
7. COc1ccc(SSc2ccc(OC)n[n+]2[O-])[n+]([O-])n1; inactive
8. CCOC(=O)CC(C)C1(C=O)CCCCC1=O (configuration not stated); inactive
9. O=C(NNc1nc2ccccc2n2cccc12)c1cnccn1; inactive
10. C=C1C(=O)OC2/C=C(\C)C3OC3/C=C(/C(=O)OC)C(OC(C)=O)C(OC(=O)C(C)(O)C(C)OC(C)=O)C12 (configuration not stated); inactive
11. CC(=O)NC(Cc1ccccc1)C(=S)N1CCCC1 (configuration not stated); inactive
12. O=c1c2c([nH]c3nccn13)CCC2; inactive
13. C=C1[C@@H]2CCC(C)(C)[C@H]1CCC(=O)[C@@H]2C(=O)OC; inactive
14. CCOC(=O)/C(O)=C(/C=N/C(=S)Nc1c(CC)cccc1CC)C(=O)OCC; inactive
15. O=C(O)C1C2C=CC(C(/C=C/c3ccccc3)N2)C1C(=O)O (configuration not stated); inactive
16. O=C(CCSSc1ccccn1)ON1C(=O)CCC1=O; inactive
17. CC1(C)CC[C@]2(C(=O)O)C(O)CC3(C)C(=CCC4[C@@]5(C)CC[C@H](OS(=O)(=O)O)C(C)(C)C5CC[C@]43C)[C@@H]2C1 (some centres not stated); inactive
18. CCOP(=O)(OCC)/C(C#N)=C/c1coc2cc(C)cc(C)c2c1=O; inactive
19. N#C/C(C(=S)NCc1ccccc1)=C1/Nc2ccccc2O1; inactive
20. Cn1c(C(O)C2(c3cccnc3)SCCCS2)cc2ccccc21 (configuration not stated); inactive
21. Cc1cc(NC(=O)c2ccc(NC(=O)c3ccccc3)cc2)ccc1N=Nc1ccc(N=Nc2ccc3c(O)cc(S(=O)(=O)O)cc3c2)c2cc(S(=O)(=O)O)ccc12; active
22. COc1ccc(/C=C2\SC(c3ccc(OC)cc3)N(NC(=O)Cc3ccccc3)C2=O)cc1 (configuration not stated); inactive

* * *

Test system: CEM cells HIV-1 protection, formazan growth assay
Assay: NCI AIDS Antiviral Assay;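 active = compounds giving half or more protection of infected cells from virus-caused growth loss, again on retest; inactive = the rest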
Classes used: YES (active), NO (inactive)

1) Cc1sc2c(c1C)C(=O)c1cccn1-2; NO
2) Cc1nnc(N)s/c1=N/O; NO
3) CC1(C)COC1(c1ccccc1)c1cccnc1 (configuration not stated); NO
4) O=S(=O)(/C=C/c1ccc(F)cc1)Cc1ccc(CS(=O)(=O)/C=C/c2ccc(F)cc2)cc1; NO
5) CC(C)COC(=O)N1N=NC2C3OC(CC3=O)C21 (configuration not stated); NO
6) Nc1nc(O)c2ncn([C@H]3CC[C@@H](CO)O3)c2n1; YES
7) O=c1cc(N=Nc2ccc(Cl)c(Cl)c2)[nH]c(=O)[nH]1; NO
8) Cn1c2ccccc2c2cc(-c3ccccc3)c3c(c21)C(=O)c1ccccc1C3=O; NO
9) Clc1ccc(C2=Nc3ccccc3SC(c3cccs3)C2)cc1 (configuration not stated); NO
10) CCC(C)(C)/C(CC(O)(C(F)(F)F)C(F)(F)F)=N\O; NO
11) O=C1NC(N/N=C\C(O)C(O)C(O)CO)=N/C1=C/c1ccc(Cl)cc1 (configuration not stated); NO
12) Cc1nc2ccccc2c(=O)n1-c1ccccc1Cl; NO

* * *

# reported EC50; entries follow
Tested on: CEM cells HIV-1 protection, formazan growth assay
Assay: NCI AIDS Antiviral Assay
Property: EC50

1) CC[n+]1c([S-])nn(C)c1-c1cnccn1; > 200 µM
2) COc1ccc2cc(C(=O)NCCc3ccccc3)ccc2c1OC; > 200 µM
3) COc1cc2cc(C(=O)N3CC(CCl)c4c3cc([N+](=O)[O-])c3ccccc43)[nH]c2c(OC)c1OC (stereo not given); > 10 µM
4) CC1=C[C@H]2O[C@H]3C[C@H]4OC(=O)/C=C\C=C\C(=O)OCC[C@@H](C)C(O)C(=O)OC[C@@]2(CC1)[C@@]4(C)[C@]31CO1 (stereo not given in full); > 0.363 µM
5) CCOC(=O)CCC(NC(=O)c1ccc(NCc2ccc3nc(-c4ccccc4)c(Cl)nc3c2)cc1)C(=O)OCC (stereo not given); > 4.79 µM

* * *

# reported IC50; entries follow
Test system: CEM cells HIV-1 protection, formazan growth assay
Assay: NCI AIDS Antiviral Assay
Condition Summary: measured here: growth of uninfected CEM cells
Property: IC50 (µM)

1) C[C@]12CCC(=O)C=C1CC[C@@H]1[C@@H]2[C@@H](O)C[C@@]2(C)[C@H]1CC[C@]2(O)C(=O)COC(=O)CCC(=O)O; 6.03
2) O=c1[nH]nc(Cn2c3ccc(Br)cc3c3nc4ccccc4nc32)n1C1CCCCC1; 174
3) O=C1/C(=C/c2ccc(O)cc2)CCc2ccc([N+](=O)[O-])cc21; 81.3
4) COc1ccccc1NC(=S)N/C=C(\C#N)c1nc2ccccc2s1; 117
5) COc1cc2c3c(cccc3c1)C(=O)N(CCN(C)C)C2=O; 1.26
6) COc1ccc(C2c3cc4c(cc3OC(NNc3ccccc3)C2C)OCO4)cc1 (stereo not given); 11.7

* * *

Test system: CEM cells HIV-1 protection, formazan growth assay
Assay: NCI AIDS Antiviral Assay
Condition Summary: measured here: growth of uninfected CEM cells
Property: IC50 (µM)

1) O=C(O)C(=O)/C=C\c1ccc(Cl)cc1; 191
2) O=C(CC(=O)N1N=C(c2ccccc2)C(N=Nc2ccccc2Cl)C1=O)Nc1ccccc1Cl (configuration not stated); 29.5
3) CCc1c(Cc2ccccc2)n(COCCC[Se]c2ccccc2)c(=O)[nH]c1=O; 18.2
4) CC(=O)Oc1cc2c(c3ncccc13)OC(C)(C)C2; 11
5) O=C1NC(O)c2cc(O)ccc2O1 (configuration not stated); 81.3
6) CC(C)OC(=O)c1cccnc1/C=N/O; 112

* * *

# reported IC50; entries follow
System: CEM cells HIV-1 protection, formazan growth assay
Assay: NCI AIDS Antiviral Assay
Condition Summary: measured here: growth of uninfected CEM cells
Property: IC50

1. COc1ccc(-c2c3c(n(C4OC(COC(C)=O)C(OC(C)=O)C(OC(C)=O)C4OC(C)=O)c(=S)c2C#N)CCC3)cc1 (stereo unspecified); 112 µM
2. CSCCC(NC(=O)OC(C)(C)C)C(=O)NCCNc1ccc(NCCNC(=O)C(CCSC)NC(=O)OC(C)(C)C)c2c1C(=O)c1ccccc1C2=O (stereo unspecified); > 100 µM
3. CC(C)(C)C(O)CC(O)(C(F)(F)F)C(F)(F)F (stereo unspecified); > 200 µM
4. CCNC(=S)N/N=C(\C)c1ccccn1; 0.0158 µM
5. CCCCCCCCCCCCCCCCN1C(=O)/C(=C\c2ccc(O)cc2)SC1=Nc1ccccc1; > 44.7 µM
6. CCOP(=O)(OCC)/C(C#N)=C/c1ccco1; > 200 µM
7. CC1(c2cccc(C3CC4(CCC3=O)OCCCCO4)c2)OCCO1 (stereo unspecified); > 200 µM
8. Cc1c(CO)[n+](=O)c2ccccc2n1[O-]; > 200 µM
9. COC(=O)CNCC1OC2OC(C)(C)OC2C1N=[N+]=[N-] (stereo unspecified); > 200 µM
10. COC(=O)CCC(=O)NC1C2CC3CC(C2)CC1C3 (stereo unspecified); > 135 µM
11. O=Nc1c(O)cc(Nc2cccnc2)c2ccccc12; 182 µM
